Readings of Viability (%) at different lipid concentrations, mean for the listed compounds
# Tested on: HepG2 cell line
# procedure-details: In vitro toxicity study on HepG2 cell line (resazurin, viability and IC50)
# Assay type: cell-based, human
# experimental-context: HepG2 cells, 200 μM lipid, 48 h post-treatment, resazurin, relative to ethanol vehicle controls
Could you give me the number in %? Just the number is fine.

# annotated cases, reported Viability (%) at different lipid concentrations, mean shown
| compound | experimental-value |
| --- | --- |
| CCCCC/C=C\C/C=C\CCCCCCCCOC(CCCCCCC/C=C\C/C=C\CCCCC)O[Si](C)(C)OCCCCCCN1CCCCC1CO (stereo not shown) | 91.7 |
| CCCCCCCC/C=C\CCCCCCCCOC(=O)C(C)(C)CCC(OCCCCCCCC/C=C\CCCCCCCC)O[Si](C)(C)OCCCCCCN1CCOCC1 (stereo not shown) | 100.3 |
| CCCCCCCC/C=C\CCCCCCCC(OCC(CCCCCC)CCCCCCCC)O[Si](C)(C)OCCCCCCN(CCO)CCO (stereo not shown) | 100.0 |
| CCCCC/C=C\C/C=C\CCCCCCCCOC(CCCCCCC/C=C\C/C=C\CCCCC)O[Si](C)(C)OCCCCCCN(CCCCO)CCCCO (stereo not shown) | 13.2 |
| CCCCCCCC/C=C\CCCCCCCCOC(=O)C(C)(C)CC(OCCCCCCCC/C=C\CCCCCCCC)O[Si](C)(C)OCCCCCCN(CCO)CCN(CCO)CCCCCCO[Si](C)(C)OC(CC(C)(C)C(=O)OCCCCCCCC/C=C\CCCCCCCC)OCCCCCCCC/C=C\CCCCCCCC (stereo not shown) | 90.16 |
| C#CCN(C)CCCCCCO[Si](C)(C)OC(CCCCCCC/C=C\C/C=C\CCCCC)OCCCCCCCC/C=C\C/C=C\CCCCC (stereo not shown) | 24.8 |
| CCCCC/C=C\C/C=C\CCCCCCCCOC(CCCCCCC/C=C\C/C=C\CCCCC)O[Si](C)(C)OCCCCCCN(C)CC(O)CO (stereo not shown) | 29.0 |
| CCCCCCCC/C=C\CCCCCCCC(OCCC(C)CCCC(C)CCCC(C)CCCC(C)C)O[Si](C)(C)OCCCCCCN(CCO)CCO (stereo not shown) | 112.9 |

Attention now shifts to the item below.
Just so you know, measured Viability (%) at different lipid concentrations, mean for CCCCCCCC/C=C\CCCCCCCC(OCCCCCCCCCCCCCCC(C)C)O[Si](C)(C)OCCCCCCN(CCO)CCO (stereo not shown) came out at 103.8
